Just for reference, PubChem BioAssay (NCATS) is where these values come from.

Tested on: W2
Test Method Notes: qHTS profiling for inhibitors of Plasmodium falciparum proliferation (AID 504749); note: nearly all actives have a fitted effect of over 60% in size
Cond: P. falciparum in erythrocytes, SYBR Green DNA, 72 h; series mostly up to 28.7 µM
Inconclusive results are not listed. The source made the active and inactive calls. Calls come from the whole dose curve; as a rule, active = well fitted inhibition curve with a large enough effect; inconclusive = small, poorly fitted or top-dose-only effect; inactive = flat fitted curve, though single readings scatter.
The categories you may choose from are T = active, F = inactive

Some entries whose results are on file:
O=C1NS(=O)(=O)c2ccccc21
F
[Cl][In]([Cl])[Cl]
T
CC(C)(C)C(=O)NCCCC(=O)O
F

Query block: // param item: Nc1ccc(S(=O)(=O)Nc2nccs2)cc1 ; yields the recorded call
Result block: F

Query block: // param item: N[C@@H](CSCCCO)C(=O)O ; yields the recorded call
Result block: F

Query block: // param item: Cc1cc(O)cc2c1O[C@](C)(CCC[C@H](C)CCC[C@H](C)CCCC(C)C)CC2 ; yields the recorded call
Result block: F

Query block: // param item: CCCn1cnc2c1c(=O)n(CCCCC(C)=O)c(=O)n2C ; yields the recorded call
Result block: T

Query block: // param item: C=Cc1c(C)c2cc3[nH]c(cc4nc(cc5nc(cc1[nH]2)C(C)=C5CCC(=O)O)C(CCC(=O)O)=C4C)c(C)c3C=C ; yields the recorded call
Result block: F

Query block: // param item: NC1CCN(c2cccc(Cl)n2)CC1 ; yields the recorded call
Result block: T

Query block: // param item: O=C(CCCN1CCN(c2ccccn2)CC1)c1ccc(F)cc1 ; yields the recorded call
Result block: F

====

Test Method Notes: qHTS Assay for Identifying Gametocytocidal Compounds (AID 743244);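 note: % is set by controls: 0 for no effect and ±100 for the full control effect; actives lower the fluorescent signal which means gametocytes are killed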
Cond: P. falciparum 3D7 stage III-V gametocytes, alamarBlue, 72 h; hits give low values
Inconclusive results are not listed.
We begin with a simple list: items and their reported max response.
Write the answer as a number in %, unit excluded.

Oc1ccc(C(O)CNCCCCCCNCC(O)c2ccc(O)c(O)c2)cc1O (stereo not drawn)
-5.82

Noted for CO/N=C(\C(=O)N[C@@H]1C(=O)N2C(C(=O)O)=C(CSc3nc(=O)c(O)nn3C)CS[C@H]12)c1csc(N)n1 : its max response reads -6.47

Noted for NC(=O)NC(=O)Cc1ccccc1 : its max response reads 3.39

Noted for CCCc1c(OCCCCc2nn[nH]n2)ccc(C(C)=O)c1O : its max response reads -10.5

Noted for Cc1cccc(C)c1NC(=O)CN(CC(=O)O)CC(=O)O : its max response reads -6.34

Noted for CC(C)c1c(C(=O)Nc2ccccc2)c(-c2ccccc2)c(-c2ccc(F)cc2)n1CC[C@@H](O)C[C@@H](O)CC(=O)O : its max response reads -14.7

Noted for O=c1[nH]cnc2c1ncn2[C@@H]1O[C@H](CO)[C@@H](O)[C@H]1O : its max response reads 5.28

Noted for Cc1cc2c(cc1S(N)(=O)=O)S(=O)(=O)CCC2 : its max response reads 20.4

====

Tested on: TAB165
Test Method Notes: qHTS profiling for inhibitors of Plasmodium falciparum proliferation (AID 504749); note: nearly all actives have a fitted effect of over 60% in size
Cond: P. falciparum in erythrocytes, SYBR Green DNA, 72 h; series mostly up to 28.7 µM
Inconclusive results are not listed. Calls of active or inactive are those of the source. Calls come from the whole dose curve; as a rule, active = well fitted inhibition curve with a large enough effect; inconclusive = small, poorly fitted or top-dose-only effect; inactive = flat fitted curve, though single readings scatter.
The categories you may choose from are T = active, F = inactive

Some entries whose results are on file:
CSc1ccc2c(c1)C(N1CCN(C)CC1)Cc1ccccc1S2 (centres undefined)
T
O=C1NC(=O)[C@@]2(CCOc3ccc(F)cc32)N1
F
COc1ccc(Cl)cc1C(=O)NCCc1ccc(S(=O)(=O)NC(=O)NC2CCCCC2)cc1
F
NS(=O)(=O)c1cc2c(cc1Cl)NC(CSCc1ccccc1)=NS2(=O)=O
F
COc1cc2[nH]c(=O)[nH]c(=O)c2cc1OC
F

Query block: // param item: CC12CCC(CC1)C(C)(C)O2 ; yields the recorded call
Result block: F

Query block: // param item: Nc1ccc(S(=O)(=O)Nc2nccs2)cc1 ; yields the recorded call
Result block: F

Query block: // param item: O=C(Oc1ccccc1C(=O)O)c1ccccc1O ; yields the recorded call
Result block: F

Query block: // param item: CC(CN1c2ccccc2Sc2ccccc21)N(C)C (centres undefined) ; yields the recorded call
Result block: F

Query block: // param item: CCCOC(=O)c1ccccc1 ; yields the recorded call
Result block: F

Query block: // param item: CC1(C)[C@@H]2CC[C@@]1(C)C(=O)C2 ; yields the recorded call
Result block: F

Query block: // param item: CC(C(O)c1ccc(O)cc1)N1CCC(Cc2ccccc2)CC1 (centres undefined) ; yields the recorded call
Result block: T

Query block: // param item: O=S(=O)(O)NC1CCCCC1 ; yields the recorded call
Result block: F

Query block: // param item: CC(C)(C)NCC(O)COc1ccc(NC(=O)NC2CCCCC2)cc1 (centres undefined) ; yields the recorded call
Result block: F
